procedureText: activity coefficient (dimensionless); of the first substance listed, at infinite dilution; xn = mol fraction of the nth substance listed
measurementContext: 403 K; 101.3 kPa; Liquid; open tubular wall-coated column chromatography; x1 = 0
// reported activity coefficient per item
metric: activity coefficient

* C1CCOC1 [tetrahydrofuran] + CC(=O)[O-].CCn1cc[n+](C)c1 | 4
* c1ccccc1 [benzene] + CC(=O)[O-].CCn1cc[n+](C)c1 | 3.91
* C1COCCO1 [1,4-dioxane] + CC(=O)[O-].CCn1cc[n+](C)c1 | 2.67
* CCOC(C)=O [ethyl acetate] + CC(=O)[O-].CCn1cc[n+](C)c1 | 5.32
* CC#N [acetonitrile] + CC(=O)[O-].CCn1cc[n+](C)c1 | 1.21
* Cc1ccccc1 [toluene] + CC(=O)[O-].CCn1cc[n+](C)c1 | 6.47
